Tested on: SK-MEL-28 melanoma
test.summary: NCI tumour cell line growth inhibition, 48 h; in the data active = GI50 below about 0.43 µM; inactive = the rest
The reply should be one of these categories: active, inactive

Study these solved cases before continuing.
compound=CCOCC[P+](c1ccccc1)(c1ccccc1)c1ccccc1 target_desc="SK-MEL-28 melanoma" group=inactive
compound=COc1cc2c3c(n(CCCN4CCOCC4)c(=O)c2cc1OC)-c1cc2c(cc1C3=O)OCO2 target_desc="SK-MEL-28 melanoma" group=inactive
compound=CN(C)CCOc1cccc(NC2=C(Cl)C(=O)C(Nc3cccc(OCCN(C)C)c3)=C(Cl)C2=O)c1 target_desc="SK-MEL-28 melanoma" group=inactive
compound="COc1ccc(C2SC(C)C(=O)N2NC(=O)C(O)c2ccccc2)cc1 (centres undefined)" target_desc="SK-MEL-28 melanoma" group=inactive

Query: Lab log entry: `CC(=O)O[C@@H]1CC(=O)O[C@@H]2C[C@@H](CC/C(Cl)=C/C/C=C\1C)O[C@@H]2CO` — outcome as called in the assay?
Result: inactive

Query: Lab log entry: `OCCCNC(=S)Nc1ccc(-c2nc3ccccc3s2)cc1` — outcome as called in the assay?
Result: inactive

Query: Lab log entry: COc1ccc(/C=C2\CCCC3=C2N=C2SC=NN2C3c2ccc(OC)c(OC)c2)cc1OC (centres undefined) — outcome as called in the assay?
Result: inactive
